# Tested on: catalepsy
# PROCEDURE_TEXT: Cataleptogenic effect (extrapyramidal effect, catalepsy provoking activity) in mice
# COND: male, ddY, mouse, in vivo, ip, catalepsy observed after 20, 30 and 40 minutes
Listed compounds paired with reported ED50
READOUT_TYPE: ED50 (mg/kg)

- O=C(CCCN1CCC(O)(c2ccc(Cl)cc2)CC1)c1ccc(F)cc1 [Haloperidol, haloperidol, reference compound]: 1.3
- Cc1cc(=O)n2c(C)c(CCN3CCC(c4noc5cc(F)ccc45)CC3)sc2n1: 1.2
- CN(C)CCCN1c2ccccc2Sc2ccc(Cl)cc21 [Chlorpromazine, chlorpromazine, reference compound]: 6.2
- Cc1cn2c(C)c(CCN3CCC(c4noc5cc(F)ccc45)CC3)sc2n1: 3.3
